assay.summary: Photophysical parameters of fluorophores in glycerol
Assay type: physicochemical
experimental.conditions: measured in glycerol
measured.endpoint: ϵ (extinction coefficient)

CN(C)c1ccc(/C=C2N=C(/C=C/c3ccc(N(CCO)CCO)cc3)N(CC(=O)N[C@H]3CC[C@H](C(=O)NCCOCCOCCCCCCCl)CC3)C\2=O)cc1 [Compound 4] | 36,241 M^−1cm^−1
CN(C)c1ccc(/C=C/C2=NC(=C\c3ccccc3)/C(=O)N2CC(=O)OC(C)(C)C)cc1 [Compound 3a] | 13,863 M^−1cm^−1

Form: compound = CC1=N/C(=C\c2ccc(O)cc2)C(=O)N1CC(=O)OC(C)(C)C [Compound 1] ; ϵ (extinction coefficient) = 20,592 M^−1cm^−1

Sure, the documented ϵ (extinction coefficient) for CN(C)c1ccc(/C=C2N=C(/C=C/c3ccc(N(C)C)cc3)N(CC(=O)OC(C)(C)C)C\2=O)cc1 [Compound 3] is 39,049 M^−1cm^−1

Briefly, ϵ (extinction coefficient) measured for CN(C)c1ccc(/C=C2N=C(/C=C/c3ccccc3)N(CC(=O)OC(C)(C)C)C\2=O)cc1 [Compound 3b] : 9,004 M^−1cm^−1

Input CC1=N/C(=C\c2ccc(N(C)C)cc2)C(=O)N1CC(=O)OC(C)(C)C [Compound 2] . Output ϵ (extinction coefficient): 23,718 M^−1cm^−1

Source listed as patent US20210094922A1.
